All values here come from the RNAGym collection of RNA variant scans (doi:10.1073/pnas.2313332121).

B1: TPR 5TU (parent)
chain: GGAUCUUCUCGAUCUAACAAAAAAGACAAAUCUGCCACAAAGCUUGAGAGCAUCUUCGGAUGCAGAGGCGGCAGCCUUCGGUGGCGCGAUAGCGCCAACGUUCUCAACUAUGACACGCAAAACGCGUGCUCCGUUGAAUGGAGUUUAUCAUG

# Variants of: B1
# experiment.summary: polymerase ribozyme fitness, log enrichment relative to wild type (log ratio); higher = more active; in vitro selection for triplet polymerase activity
Fewer inactive variants are shown than the library holds.
Reported values of polymerase ribozyme fitness (log ratio) for individual entries

{"columns": ["mutant", "measurement.type", "val"],
 "data": [
  ["U4G U9C A23U C43A U56G C87U U111G C132U", "polymerase ribozyme fitness (log ratio)", "≤ -4.2"]
]}

A16G A29U U45A C54G C87G C125G yielded polymerase ribozyme fitness (log ratio) of ≤ -4.2

Lab note: measured polymerase ribozyme fitness (log ratio) of C75U G83U C129G U144G was ≤ -4.2

Recorded polymerase ribozyme fitness (log ratio) (variant U33C G42A G81A A89G A119C C132U ): ≤ -4.2
